These data points were gathered from the supplement of paper PMC6555819.

# Test system: PXR:RXRa (NR concentration 270 nM, RXRa partner concentration 90 nM)
# ASSAY_SUMMARY: PBM binding z-score (relative to random genomic background probes); higher = stronger binding; sequences stand for … in GC…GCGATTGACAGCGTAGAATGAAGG
Entry flag: Yes if PBM binding z-score reaches 0.8; No if it does not.

Ask | Dear colleague, could you confirm whether ATCTCTACGTAACCAAGTTCAGTGAATGCCGAAC has PBM binding z-score at or above 0.8?
Reply | Yes

Ask | Dear colleague, could you confirm whether AGAACAAGGGCACGCTGAGTTGATAGCAGAGTAG has PBM binding z-score at or above 0.8?
Reply | Yes

Ask | Dear colleague, could you confirm whether ATGGAAAGGTCGAGGTGAGTATAGAGAAAGGGAA has PBM binding z-score at or above 0.8?
Reply | Yes

Ask | Dear colleague, could you confirm whether CGAACTAGGTCAGAACCGGACAGTGAAGGATGAT has PBM binding z-score at or above 0.8?
Reply | No

Ask | Dear colleague, could you confirm whether GCTAGCAGGCCATATGGGTCACTCAATGACGGGC has PBM binding z-score at or above 0.8?
Reply | No

Ask | Dear colleague, could you confirm whether TCTGCTAGGTCAACGATGGTCAGCCAATCTGCTA has PBM binding z-score at or above 0.8?
Reply | Yes

Ask | Dear colleague, could you confirm whether TAGCCTAGGTCAGATCGGGCCAGTATCCGCTATA has PBM binding z-score at or above 0.8?
Reply | Yes

Ask | Dear colleague, could you confirm whether CCTTACGGGTCACGAGGCTATAGCACGACGAGCG has PBM binding z-score at or above 0.8?
Reply | Yes

Ask | Dear colleague, could you confirm whether TAGCCTAAGTCATTCAGGGGCCAGTATAGAAAGC has PBM binding z-score at or above 0.8?
Reply | No

Ask | Dear colleague, could you confirm whether CAAACTAGGTCACGAAGGGTCAAAGTCGAATGAC has PBM binding z-score at or above 0.8?
Reply | Yes

Ask | Dear colleague, could you confirm whether AGAATGTGGTTATTAAGATCAGGGAATTGCGGTC has PBM binding z-score at or above 0.8?
Reply | No

Ask | Dear colleague, could you confirm whether GCTATTAGTTGAAAGGCCAACCGAATGATTCTCG has PBM binding z-score at or above 0.8?
Reply | No

Ask | Dear colleague, could you confirm whether TCAGACAGGTGAAGGTAACACAGGTACGCAGTCG has PBM binding z-score at or above 0.8?
Reply | Yes

Ask | Dear colleague, could you confirm whether TCTGCTAGGTCAACGATGGTCAGCTAATCTGCTA has PBM binding z-score at or above 0.8?
Reply | Yes

Ask | Dear colleague, could you confirm whether ATCTCTAGGTAAGACTCAGTTCAGCGAAGAACGC has PBM binding z-score at or above 0.8?
Reply | Yes

Ask | Dear colleague, could you confirm whether ATACAAAGGTGATCGTGAGGTCGTTGATACTAAC has PBM binding z-score at or above 0.8?
Reply | Yes

Ask | Dear colleague, could you confirm whether CACCCTAGGTCAGGGCCAGTATAGGAGGAACGTT has PBM binding z-score at or above 0.8?
Reply | No

Ask | Dear colleague, could you confirm whether TCTTGTTGGTCACGGAGGTCACACACGACGGGTA has PBM binding z-score at or above 0.8?
Reply | Yes

Ask | Dear colleague, could you confirm whether CGAACTACGTCATTGACAGGACAGTGAATAGTAA has PBM binding z-score at or above 0.8?
Reply | No

Ask | Dear colleague, could you confirm whether ATACCAAGGTGATCGTGACGTCGTTGATACTAAC has PBM binding z-score at or above 0.8?
Reply | No

Ask | Dear colleague, could you confirm whether CCTACTGGGCCAAAGGTTATTGATTCCAATGCTC has PBM binding z-score at or above 0.8?
Reply | Yes

Ask | Dear colleague, could you confirm whether CCTTACGGGTCACTAACAGGTTATAGCATTTGGA has PBM binding z-score at or above 0.8?
Reply | Yes

Ask | Dear colleague, could you confirm whether TCATATAGGTAAAGATGAAAGTCGAACGATATGA has PBM binding z-score at or above 0.8?
Reply | No

Ask | Dear colleague, could you confirm whether CCGTCTGGGGCATAAGGTTACCATAAGCCAGCCC has PBM binding z-score at or above 0.8?
Reply | No

Ask | Dear colleague, could you confirm whether ACTAGTTAGTCAGCTGAGGTCACACACAATTCGG has PBM binding z-score at or above 0.8?
Reply | Yes

Ask | Dear colleague, could you confirm whether CCATACAGGTGAGAAGGTAACTCAGCCTCGATTA has PBM binding z-score at or above 0.8?
Reply | No

----------
# Test system: RARa homodimer (NR concentration 270 nM)
# ASSAY_SUMMARY: PBM binding z-score (relative to random genomic background probes); higher = stronger binding; sequences stand for … in GC…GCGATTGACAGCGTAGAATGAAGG
OBSERVABLE: PBM binding z-score
Number only, no unit.

Ask | Quick check: PBM binding z-score of CCTACTGGGCCACGAAAGGTCATTGATTCAGTGA ?
Reply | 1.7

Ask | Quick check: PBM binding z-score of TCGAGTAGGTTAGTCGGGGGATTCAGCCAACATA ?
Reply | 0.264

Ask | Quick check: PBM binding z-score of GATACAGGGTCAGCTAGAGGCAAGAGTATGGAAA ?
Reply | 0.136

Ask | Quick check: PBM binding z-score of GCGACTGGGGCAAAGCAGGTTACCATGAGGTTGG ?
Reply | -0.939

Ask | Quick check: PBM binding z-score of TCTTGTAGATCACGCAGGTTAAGAAAGCCTGAGT ?
Reply | 0.00384

Ask | Quick check: PBM binding z-score of CCAACTGGGGCATAAGGTTACCATAAGCCAGCCC ?
Reply | 0.288

Ask | Quick check: PBM binding z-score of ACTAGCAGGCCAAGGTTGGGTCACTCAAACAAAG ?
Reply | -0.93

Ask | Quick check: PBM binding z-score of TAGCCTAGGTCATGCAGGGGCCAGTATAGAAAGC ?
Reply | -0.25

Ask | Quick check: PBM binding z-score of GCTTACGGGTCAAAGGTTATAGGATGAATAGAAT ?
Reply | 1.33

Ask | Quick check: PBM binding z-score of AGTATGAGGTTAAGATCAGGGAAACAGAATACAT ?
Reply | 0.731

Ask | Quick check: PBM binding z-score of TAGCCTAGGTCATGAGGGCCAGTATAGTGTCGGC ?
Reply | -0.556

Ask | Quick check: PBM binding z-score of TCTTGTAGATCAACAGGAGGTTGAGAAAGATCGA ?
Reply | -0.378

Ask | Quick check: PBM binding z-score of CAAACTAGGTCACGAAAGGTGAAAGTCGAATGAC ?
Reply | 1.24

Ask | Quick check: PBM binding z-score of CGAACTAGCTCATCCAGGACAGTGAATACATTGA ?
Reply | -0.0939

Ask | Quick check: PBM binding z-score of CGTCCAAGTTCAAGGTAACGTAACAGAAAGCAGC ?
Reply | 0.657

Ask | Quick check: PBM binding z-score of TTACCAAGGTGAAACGTCGTTGATGCACGCCTTG ?
Reply | -0.282

Ask | Quick check: PBM binding z-score of TCAGACAGGTGCAGGTAACTCAGGTACGCAGTCG ?
Reply | -0.372

Ask | Quick check: PBM binding z-score of CCGACTGGAGCAAGGTTACCATAACGCACAGCCA ?
Reply | -0.0817

Ask | Quick check: PBM binding z-score of TCTTGTAGATCAAAGGTTGAGAAAGCCGAAGCCT ?
Reply | -0.393

Ask | Quick check: PBM binding z-score of CCTACTGGGCCAGGGTCATTGATCAGTCAAAGCA ?
Reply | -0.641

Ask | Quick check: PBM binding z-score of GCTAGCAGGCCTTTTGGGTCACTCAATGACGGGC ?
Reply | -0.611

Ask | Quick check: PBM binding z-score of GCTATTAGTTGAGAGGGCAACCGAATGATTCTCG ?
Reply | 0.278

Ask | Quick check: PBM binding z-score of TCTTGTAGATCAAAGGTTAAGTAAGCCGAAGCCT ?
Reply | 0.12

Ask | Quick check: PBM binding z-score of TGCATGAGGTTATAAGATCAGGGAACGTTGCAAA ?
Reply | 0.252

Ask | Quick check: PBM binding z-score of TTACCAAGGTGAAAGGTCGCTGATGCACGCCTTG ?
Reply | 0.386

Ask | Quick check: PBM binding z-score of CTACCAAGGTGAACAAGGCCGTTGATTACTATTC ?
Reply | -0.304
